Source of measurements: the supplement of paper PMC10065799

- TARGET OF ASSAY: Jak2 (UniProt O60674)
- Sequence (O60674 whole entry, looked up): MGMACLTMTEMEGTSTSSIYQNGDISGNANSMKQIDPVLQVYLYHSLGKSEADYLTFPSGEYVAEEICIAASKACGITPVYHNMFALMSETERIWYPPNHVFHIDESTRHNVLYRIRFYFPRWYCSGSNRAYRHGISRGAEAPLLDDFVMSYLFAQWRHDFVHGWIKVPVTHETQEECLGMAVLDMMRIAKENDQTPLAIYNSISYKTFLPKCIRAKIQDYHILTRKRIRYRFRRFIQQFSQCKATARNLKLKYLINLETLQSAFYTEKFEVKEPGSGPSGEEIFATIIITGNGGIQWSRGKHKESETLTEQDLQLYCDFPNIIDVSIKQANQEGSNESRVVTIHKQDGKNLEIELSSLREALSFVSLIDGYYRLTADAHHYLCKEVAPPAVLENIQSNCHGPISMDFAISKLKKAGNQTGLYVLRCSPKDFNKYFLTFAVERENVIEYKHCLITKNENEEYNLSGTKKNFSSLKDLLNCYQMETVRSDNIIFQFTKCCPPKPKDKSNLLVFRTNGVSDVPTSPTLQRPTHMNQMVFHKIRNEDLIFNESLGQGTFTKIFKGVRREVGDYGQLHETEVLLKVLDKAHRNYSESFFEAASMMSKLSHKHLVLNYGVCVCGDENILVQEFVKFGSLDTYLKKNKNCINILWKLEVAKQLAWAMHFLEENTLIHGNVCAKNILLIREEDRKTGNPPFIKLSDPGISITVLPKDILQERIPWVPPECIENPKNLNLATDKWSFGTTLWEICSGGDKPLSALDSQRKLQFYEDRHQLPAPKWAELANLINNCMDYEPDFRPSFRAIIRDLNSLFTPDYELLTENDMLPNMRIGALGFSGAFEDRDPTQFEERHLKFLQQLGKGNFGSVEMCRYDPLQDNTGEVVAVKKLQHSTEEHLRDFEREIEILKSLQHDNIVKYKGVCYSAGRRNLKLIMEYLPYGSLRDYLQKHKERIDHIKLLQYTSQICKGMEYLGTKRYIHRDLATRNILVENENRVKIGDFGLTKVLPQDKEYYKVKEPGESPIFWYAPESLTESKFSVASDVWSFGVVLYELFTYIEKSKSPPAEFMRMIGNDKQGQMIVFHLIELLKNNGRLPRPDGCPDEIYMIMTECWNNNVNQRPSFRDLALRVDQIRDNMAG
- ASSAY REMARKS: phosphorylation enrichment, bacterial display (enrichment ratio); higher = better substrate or ligand; peptides without Tyr show the background;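 note: 11-residue human phosphosite peptides and single-mutation variants displayed on the E. coli surface, counted by deep sequencing, each peptide's frequency after selection divided by its frequency in the unselected input library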;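 note: frequency after pTyr selection over input frequency; kinase dosed for 20-30% of maximal phosphorylation in three min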
MEASUREMENT KIND: phosphorylation enrichment
The reply should be a number, written without any unit.

Input line: Recorded phosphorylation enrichment for EILLSYLRTGY [TGM1_Y365] , please?
Output line: 1.4

Input line: Recorded phosphorylation enrichment for MLEVPYVDHNS [F10_Y384_R387H] , please?
Output line: 1.24

Input line: Recorded phosphorylation enrichment for TPSGNYVACGG [GNB1_Y111_A106T] , please?
Output line: 0.602
